test: qHTS RealTime-Glo MT Cell Viability Assay in HepG2 cells - 40 hour (AID 1224870); details: RealTime-Glo luminescence; series mostly up to 76.8 µM; note: nearly all actives have a fitted effect of over 50% in size
Records with an inconclusive call do not appear. Calls of active or inactive are those of the source. Calls come from the whole dose curve; as a rule, active = well fitted cell-killing curve with a large enough effect in the repeat runs; inconclusive = weak or mixed curves, or effect the other way; inactive = flat fitted curve, though single readings scatter.
Select the correct class. Options are TRUE for active, FALSE for inactive and nothing else.

CC(C)(C)CCCCCCOC(=O)c1ccccc1C(=O)OCCCCCCC(C)(C)C | FALSE
COc1ccc(C)cc1 | FALSE

Q: How did this test come out for Nc1ccc(NC(=O)c2ccc(N)cc2)cc1 ?
Result: FALSE

Q: What was the test verdict on CC(CCc1ccc(O)cc1)NCCc1ccc(O)c(O)c1 (stereo unspecified) ?
Result: FALSE

Q: Which outcome did this test record for the compound CC1CCC(C(C)CS)CC1S (stereo unspecified) ?
Result: FALSE

Q: Would you mind telling me which call this test gave CC(C(=O)O)c1ccc(C(=O)c2cccs2)cc1 (stereo unspecified) ?
Result: FALSE

Q: For CCC1CCC(CCC(=O)O)C1 (stereo unspecified) , which call appears in the assay record?
Result: FALSE

Q: // return assay outcome for COc1ccc(N)c([N+](=O)[O-])c1
Result: FALSE

Q: Tell me the assay call for CC(C)(C)C1(CCc2ccc(Cl)cc2)CO1 (stereo unspecified) please.
Result: FALSE

Q: Which outcome was assigned to CO[C@@H]1[C@@H](OC)[C@H](C)[C@@](O)(CC(=O)O)O[C@H]1[C@H](C)[C@H]1O[C@@]2(CC[C@@](C)([C@H]3CC[C@@](C)([C@@H]4O[C@@H]([C@H]5O[C@](C)(O)[C@H](C)C[C@@H]5C)C[C@@H]4OC4C[C@H](OC)[C@@H](OC)[C@H](C)O4)O3)O2)C[C@H](O)[C@H]1C (stereo partly specified) in this test?
Result: TRUE

###

Experiment: A CellTox Green Cytotoxicity Assay to monitor cytotoxicity in HEK293 cells - 0 hour (AID 1224869); note: nearly all actives have a fitted effect of over 50% in size
Details: CellTox Green fluorescence; series mostly up to 76.8 µM
Source text: National Center for Advancing Translational Sciences [NCATS] NIH Chemical Genomics Center [NCGC] U.S. Environmental Protection Agency [EPA] National Institutes of Environmental Health Sciences [NIEHS] National Toxicology Program [NTP] Cell-based models are critical for drug discovery. […] Viable cells produce no appreciable increases in fluorescence. Therefore, the fluorescence signal produced by the binding interaction with dead cell DNA is proportional to cytotoxicity. […]
The source made the active and inactive calls. The call rests on the fitted dose curve; in most records, active means well fitted activation curve with a large enough effect in the repeat runs; inconclusive means weak or mixed curves; inactive means flat fitted curve, though single readings scatter.
property.name: cytotoxicity

Oc1cccc2[nH]ccc12 | inactive
CCC(CO)(CO)[N+](=O)[O-] | inactive
Cc1cn([C@H]2C[C@H](F)[C@@H](CO)O2)c(=O)[nH]c1=O | inactive

###

test: qHTS assay to identify small molecule agonists of the estrogen receptor beta (ER-beta) signaling pathway - cell viability counter screen (AID 1259380); conditions: ER-beta-bla HEK293T viability, CellTiter-Glo luminescence, 16 h; series mostly up to 92.4 µM; note: nearly all actives have a fitted effect of over 30% in size
Results filed as inconclusive are left out. Calls of active or inactive are those of the source. The call rests on the fitted dose curve; in most records, active means well fitted cell-killing curve with a large enough effect in the repeat runs; inconclusive means weak or mixed curves, or effect the other way; inactive means flat fitted curve, though single readings scatter.
Answer with one of the outcomes active, inactive

Previously resolved entries follow.
Cc1cc(CCCOc2c(C)cc(-c3noc(C(F)(F)F)n3)cc2C)on1 | inactive
COc1cc(NCc2ccc3nc(N)nc(N)c3c2C)cc(OC)c1OC | active
CC(C)c1ccc(C#N)cc1 | inactive
[Cl][Nd]([Cl])[Cl] | inactive
O=C1OC[C@H](Cc2cccc(O)c2)[C@H]1Cc1cccc(O)c1 | inactive

Q: Which outcome was assigned to C=CC(=O)NC(C)C in this test?
Result: inactive

Q: # lookup: test call for Nc1ccn([C@H]2CS[C@@H](CO)O2)c(=O)n1
Result: inactive

Q: Please let me know the test result on file for CCC(=O)OCc1ccc(OC)cc1 .
Result: inactive

Q: Assay outcome for CC1CCCO1 (stereo unspecified) : what was it?
Result: inactive

Q: # lookup: test call for COc1cc(OC)c2ccc(=O)oc2c1
Result: inactive

Q: For this molecule, state the assay outcome: CC(C)c1ccc(C(=O)N=C(N)N)cc1S(C)(=O)=O
Result: inactive

Q: What was the test verdict on CC(C)(O)CCc1ccccc1 ?
Result: inactive

Q: Fill in: this test's call for CC(=O)c1ccc[nH]1 is ___
Result: inactive

Q: Please indicate how the test categorized C[C@@H]1C[C@H]2[C@@H]3CCC4=CC(=O)C=C[C@]4(C)[C@@]3(F)[C@@H](O)C[C@]2(C)[C@@]1(O)C(=O)COP(=O)(O)O .
Result: inactive

Q: Identify the outcome logged in this assay for the molecule shown: CC1CCCC(=O)C1=O (stereo unspecified)
Result: inactive

Values from PubChem BioAssay (Tox21)
